- system_name: human FXR alpha ligand binding domain (Homo sapiens (Human))
- Sequence (Q96RI1 other isoform, or with tags, fused parts or gaps): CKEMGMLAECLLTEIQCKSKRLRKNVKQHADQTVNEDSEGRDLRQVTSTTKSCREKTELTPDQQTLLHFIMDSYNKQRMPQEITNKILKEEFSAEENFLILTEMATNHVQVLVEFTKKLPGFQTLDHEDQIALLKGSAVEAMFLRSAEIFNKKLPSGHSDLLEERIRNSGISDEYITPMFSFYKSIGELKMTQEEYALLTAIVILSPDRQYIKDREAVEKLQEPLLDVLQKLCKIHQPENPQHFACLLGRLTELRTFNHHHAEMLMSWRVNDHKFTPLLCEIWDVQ
- assay_procedure: FRET activity assay (LANCE; ligand mediated FXR-LBD / SRC-1 cofactor peptide interaction)
- Format: biochemical
- assay_context: GST-FXR-LBD, biotinylated SRC-1 peptide 676-700; read-out: FRET EC50
measured_property: pEC50
Quick note: pEC50 means taking -log10 of the concentration in moles per liter.

Some entries whose results are on file:
{"compound": "O=C(O)c1ccc(N2CC(O)(c3ccc(OCc4c(-c5c(Cl)cccc5Cl)noc4C4CC4)cc3Cl)C2)nc1C(F)(F)F", "pEC50": 8.51}
{"compound": "Cc1nc(N2CC(O)(c3ccc(OCc4c(-c5c(Cl)cccc5Cl)noc4C4CC4)cc3Cl)C2)ccc1C(=O)O", "pEC50": 8.36}
{"compound": "Cc1cc(N2CC(O)(c3ccc(OCc4c(-c5c(Cl)cccc5Cl)noc4C4CC4)cc3Cl)C2)ncc1C(=O)O", "pEC50": 8.07}
{"compound": "O=C(O)c1ccnc(N2CC(O)(c3ccc(OCc4c(-c5c(Cl)cncc5Cl)noc4C4CC4)cc3Cl)C2)c1 [Comparative Compound 2, reference compound]", "pEC50": 7.32}
{"compound": "O=C(O)c1cnc(N2CC(O)(c3ccc(OCc4c(C5CC5)cnn4-c4c(Cl)cccc4Cl)cc3Cl)C2)c(F)c1", "pEC50": 8.42}

For O=C(O)c1ccc(N2CC(O)(c3ccc(OCc4c(-c5c(Cl)cncc5Cl)noc4C4CC4)cc3Cl)C2)nc1 the compound record lists pEC50 as 8.21

For COc1cccc(OC)c1-c1noc(C2CC2)c1COc1ccc(C2(O)CN(c3ncc(C(=O)O)cc3F)C2)c(Cl)c1 the compound record lists pEC50 as 7.82

====

- system_name: FXR ligand binding domain (Homo sapiens (Human), UniProt Q96RI1)
- Sequence (Q96RI1 other isoform, or with tags, fused parts or gaps): as above
- assay_procedure: Mammalian one hybrid (M1H) Gal4 reporter gene assay in HEK293 cells
- Type: cell-based
- assay_context: Gal4-FXR-LBD luciferase reporter, HEK293 cells, 16 h; read-out: M1H EC50
// boundary case: EC50 equal to 100 nM maps to NOT MET; strictly smaller maps to MET

{"compound": "Cc1nc(N2CC(O)(c3ccc(OCc4c(-c5c(Cl)cccc5Cl)noc4C4CC4)cc3Cl)C2)ccc1C(=O)O", "category_label": "MET"}
{"compound": "O=C(O)c1ccnc(N2CC(O)(c3ccc(OCc4c(-c5c(Cl)cncc5Cl)noc4C4CC4)cc3Cl)C2)c1 [Comparative Compound 2, reference compound]", "category_label": "NOT MET"}
{"compound": "O=C(O)c1ccc(N2CC(O)(c3ccc(OCc4c(-c5c(Cl)cccc5Cl)noc4C4CC4)cc3Cl)C2)nc1C(F)(F)F", "category_label": "MET"}
{"compound": "O=C(O)c1ccc(N2CC(O)(c3ccc(OCc4c(-c5c(Cl)cncc5Cl)noc4C4CC4)cc3Cl)C2)nc1", "category_label": "MET"}
{"compound": "O=C(O)c1cc(N2CC(O)(c3ccc(OCc4c(-c5c(Cl)cccc5Cl)noc4C4CC4)cc3Cl)C2)nc(C(F)(F)F)c1 [Comparative Compound 3, reference compound]", "category_label": "NOT MET"}

[Q] For COc1cccc(OC)c1-c1noc(C2CC2)c1COc1ccc(C2(O)CN(c3ncc(C(=O)O)cc3F)C2)c(Cl)c1 , is the recorded EC50 below the cut-off of 100 nM?
[A] NOT MET
